Values compiled from ChEMBL document CHEMBL6153131.

Please provide measured Emax for the entries that follow.
experimental.system: Protein cereblon/Indoleamine 2,3-dioxygenase 1 (Homo sapiens, UniProt P14902+Q96SW2)
Sequence (P14902 whole entry, looked up): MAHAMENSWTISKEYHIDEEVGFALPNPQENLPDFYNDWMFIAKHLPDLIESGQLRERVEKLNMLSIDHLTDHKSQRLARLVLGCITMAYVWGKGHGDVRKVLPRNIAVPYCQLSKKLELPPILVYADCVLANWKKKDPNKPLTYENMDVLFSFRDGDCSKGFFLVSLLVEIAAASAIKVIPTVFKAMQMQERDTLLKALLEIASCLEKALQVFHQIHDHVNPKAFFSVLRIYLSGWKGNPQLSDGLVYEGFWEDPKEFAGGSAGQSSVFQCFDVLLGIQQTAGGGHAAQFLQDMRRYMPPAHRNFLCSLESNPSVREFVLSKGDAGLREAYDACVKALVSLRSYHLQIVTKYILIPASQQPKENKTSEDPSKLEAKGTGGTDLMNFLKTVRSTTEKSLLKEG
Sequence (Q96SW2 whole entry, looked up): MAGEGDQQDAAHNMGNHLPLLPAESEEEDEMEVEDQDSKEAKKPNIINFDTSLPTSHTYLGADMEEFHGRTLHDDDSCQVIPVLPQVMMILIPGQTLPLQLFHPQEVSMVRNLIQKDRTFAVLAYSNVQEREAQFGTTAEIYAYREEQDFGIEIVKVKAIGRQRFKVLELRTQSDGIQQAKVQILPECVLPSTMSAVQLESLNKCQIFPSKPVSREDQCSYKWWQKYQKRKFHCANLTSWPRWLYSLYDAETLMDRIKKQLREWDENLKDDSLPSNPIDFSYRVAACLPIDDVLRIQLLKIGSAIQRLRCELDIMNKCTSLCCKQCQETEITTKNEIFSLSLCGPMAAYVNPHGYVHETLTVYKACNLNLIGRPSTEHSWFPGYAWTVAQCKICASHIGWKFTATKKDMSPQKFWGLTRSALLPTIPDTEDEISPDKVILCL
assay.details: PROTAC activity at CRBN/N-terminal HiBiT-tagged IDO1 (unknown origin) transfected in human U87 cells assessed as induction of IDO1 degradation by measuring maximum efficacy pretreated with IFN-gamma for 24 hrs followed by compound addition and measured after 24 hrs by Nano-Glo HiBiT assay relative to control
Type: cell-based
One number for each entry, in %.

Before answering, review these 2 worked examples.
C[C@@H](C(=O)Nc1ccc(Cl)c(OC2CCN(C(=O)CN3CCC(CN4CCN(c5ccc6c(c5)C(=O)N(C5CCC(=O)NC5=O)C6=O)CC4)CC3)CC2)c1)[C@H]1CC[C@@H](c2ccnc3ccc(F)cc32)CC1 (stereo not given in full): 48
C[C@@H](C(=O)Nc1ccc(OC2CCN(C(=O)CN3CCC(N4CCN(c5ccc6c(c5)C(=O)N(C5CCC(=O)NC5=O)C6=O)CC4)CC3)CC2)cc1)[C@H]1CC[C@@H](c2ccnc3ccc(F)cc32)CC1 (stereo not given in full): 21

Ask: What reported Emax corresponds to C[C@@H](C(=O)Nc1cccc(OC2CCN(C(=O)CN3CCC(N4CCN(c5ccc6c(c5)C(=O)N(C5CCC(=O)NC5=O)C6=O)CC4)CC3)CC2)c1)[C@H]1CC[C@@H](c2ccnc3ccc(F)cc32)CC1 (stereo not given in full) on Protein cereblon/Indoleamine 2,3-dioxygenase 1 (Homo sapiens, UniProt P14902+Q96SW2)?
Result: 63
